Test system: S. aureus MRSA5
Assay: microbe, parasite or virus in culture
Format: cell-based
Conditions: Staphylococcus aureus
One threshold, 0.5 µg/mL, splits the recorded MIC values: lower ones are rule met, equal or higher ones are rule not met.

// known answers, use as guide
CCN(CCCC(F)(F)F)Cc1cc(N(C)C)c2c(c1O)C(=O)C1=C(O)[C@]3(O)C(=O)C(C(N)=O)=C(O)[C@@H](N(C)C)[C@@H]3C[C@@H]1C2 [N] ... rule not met
C[C@H]1c2cccc(O)c2C(=O)C2=C(O)[C@]3(O)C(=O)C(C(N)=O)=C(O)[C@@H](N(C)C)[C@@H]3[C@@H](O)[C@@H]21 [Doxycycline, reference compound] ... rule not met
COc1ccc(-c2cc(CNC(C)CF)c(O)c3c2C[C@H]2C[C@H]4[C@H](N(C)C)C(O)=C(C(N)=O)C(=O)[C@@]4(O)C(O)=C2C3=O)cn1 (stereo partly shown) [AM] ... rule met
CC(C)c1cc(CN2CC=CCC2)c(O)c2c1C[C@H]1C[C@H]3[C@H](N(C)C)C(O)=C(C(N)=O)C(=O)[C@@]3(O)C(O)=C1C2=O [AF] ... rule met

Is it true that MIC reported for CN(C)c1cc(CN2CCC(F)(F)CC2)c(O)c2c1C[C@H]1C[C@H]3[C@H](N(C)C)C(O)=C(C(N)=O)C(=O)[C@@]3(O)C(O)=C1C2=O [Compound H] is less than 0.5 µg/mL? rule met

Is it true that MIC reported for CN(C)[C@@H]1C(O)=C(C(N)=O)C(=O)[C@@]2(O)C(O)=C3C(=O)c4c(O)ccc(-c5ccc(CO)cc5)c4C[C@H]3C[C@@H]12 [AB] is less than 0.5 µg/mL? rule not met

Is it true that MIC reported for COCCOC(=O)Nc1ccc(-c2ccc(O)c3c2C[C@H]2C[C@H]4[C@H](N(C)C)C(O)=C(C(N)=O)C(=O)[C@@]4(O)C(O)=C2C3=O)cc1 [AD] is less than 0.5 µg/mL? rule not met

Is it true that MIC reported for CN(C)C1C(O)=C(C(N)=O)C(=O)C2(O)C(O)=C3C(=O)c4c(O)cccc4C(C)(O)C3CC12 (stereo not shown) [Tetracycline, reference compound] is less than 0.5 µg/mL? rule not met

All figures here come from patent US8440646B1.
